biological target: FRMPD4, Q14CM0; test: holdup assay; set-up: key: below the threshold = too weak to quantify, mostly under pKd 3.1 to 4; conditions: plain residues with an end cap or a label only (N-terminal biotin on a linker: ado-ado)
Sequence (Q14CM0 67-160): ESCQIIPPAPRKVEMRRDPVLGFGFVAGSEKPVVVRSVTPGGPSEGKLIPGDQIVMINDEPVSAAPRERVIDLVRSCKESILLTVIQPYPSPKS

binder	pKd
RKPKPSSSCC [RAB9A, P51151]	below the threshold
GNSVLKSTQF [SLC22A12, Q96S37]	below the threshold
RRISSLESEV [GRIN2C, Q14957]	below the threshold
TSSMRGMDAV [RSRC2, Q7L4I2]	below the threshold
AKPSRISTVV [IQSEC2, Q5JU85]	below the threshold
IKAIVDLTGL [TRAF2, Q12933]	3.7
QGPVETESVV [SLC45A4, Q5BKX6]	below the threshold
YRLAQESGLV [ABCC6, O95255]	below the threshold
PDGQCTVTEV [RNF146, Q9NTX7]	below the threshold
LRSPRTPSEV [OR10G3, Q8NGC4]	below the threshold
KKMPSIESDV [GRIN2A, Q12879]	below the threshold
LPHGHSTTRV [NLGN4X, Q8N0W4]	below the threshold
GSGAVEMESV [AQP6, Q13520]	below the threshold
PAPSSGKDYV [CLDN1, O95832]	3.59
VDSTVKVWTC [TRAF7, Q6Q0C0]	4.02
DDPSTAETVL [ABCA7, Q8IZY2]	4.1
